- Test system: SK-OV-3 ovarian
- measurementDescription: NCI tumour cell line growth inhibition, 48 h
Reported GI50 values are given for each entry in this list.

COc1cc(-c2cc(C(=O)Nc3nc4ccccc4s3)nc3cc(-c4ccccc4)nn23)cc(OC)c1OC	12.5 µM
O=C(Nc1ncc([N+](=O)[O-])s1)c1cccc([N+](=O)[O-])c1	3.72 µM

Kindly review the next compound as well.
Exercise: Returns the measured GI50 for the input compound. Input: Cc1c(C(=O)N/N=C/c2ccc(O)cc2)nnn1-c1ccnc2c(C(F)(F)F)cccc12
Key: 27.2 µM

----------
- Tested on: HCT-116 colon
- measurementDescription: NCI tumour cell line growth inhibition, 48 h
Measured TGI values are reported for all entries that follow.
Just the number in µM, nothing appended.

Below, 5 molecules whose answers are already recorded.
COC(=O)C/C(C)=C/[C@@H](O)[C@H]1O[C@@H]2CC/C(Cl)=C/C/C=C(/C)[C@H](OC(C)=O)CC(=O)O[C@@H]1C2	7.85
COC1=C(OC)C(=O)c2cc(SC)c(=O)c(SC)cc2C1=O	46.3
O=C(Nc1cccc(NS(=O)(=O)c2ccc(F)cc2)c1)c1ccc(-c2ccccc2)cc1	13.4
COc1ccc(-n2c(-c3ccc(NC(=O)CCCl)cc3)nnc2-c2cc(OC)c(OC)c(OC)c2)cc1	8.54
O=c1oc2ccccc2c(Cl)c1Cl	13.6

Exercise: Entry COC1/C=C/C(C)C(C(C)C(OC)C(C)CCC(=O)C(C)C(CC(=O)O)OC)OC(=O)/C=C/C=C(\C)CC(OC)C(OC)C2=CC(=O)O[C@@H](C(C)C(OC)CC(OC)/C=C/C(C)C(O)C1)[C@H]2O (stereo partly specified) has what TGI?
Key: 0.227

Exercise: Now consider CCOC(=O)Oc1c(OC)cc(C(=O)c2ccc(OC)c(OC(=O)CCl)c2OC)cc1OC .
Key: 36.2

Exercise: Do the same for CCOC(=O)c1[nH]c2cccc3c2c1CC(Br)C3=O (stereo unspecified) please
Key: 7.79

Exercise: Now consider Cc1c2[nH]c3ccc(Br)cc3c2c(C)c2[nH]ccc(=O)c12 .
Key: 28.2

Exercise: Okay, and Nc1c(O)c2c(c(O)c1Cl)C(=O)C=CC2=O ?
Key: 7.09

Exercise: Queued: C=C1C(=O)O[C@H]2[C@H]1CC/C(COC(=O)/C=C/c1cccnc1)=C\CC[C@@]1(C)O[C@@H]21
Key: 1.52

Exercise: Same read-out for OCc1ccc(N(Cc2ccc(F)cc2)C2CCC2)cc1Cl ?
Key: 3.73

Exercise: Then this molecule: CCN(Cc1ccc(F)cc1F)c1ccc(CO)c(Cl)c1
Key: 12.5

Exercise: Moving on to the next molecule: O=[N+]([O-])/C(C(Cl)=C(Cl)Cl)=C(\Nc1cccc2cccnc12)Sc1ccccc1
Key: 39

Exercise: Also, COc1ccc(C[C@H]2NC[C@H](OC(C)=O)[C@H]2OC(C)=O)cc1 please.
Key: 0.685

Exercise: // query: CC(C)(C)[Si](C)(C)OC1[C@@H](O[Si](C)(C)C(C)(C)C)[C@@H](CNC(=O)NC(=O)NC(=O)CI)O[C@H]1n1cnc2c(NC(=O)Nc3ccccc3)ncnc21 (stereo partly specified)
Key: 9.08

Exercise: What do you have for COc1ccc2c(c1OC)C(Br)CCC(Br)(Br)C2=O (stereo unspecified) ?
Key: 17.3
